Details: 20 °C
For each entry below, report its solubility value.
Report as a plain number; the unit µM is understood.

Entry CCOP(=S)(OCC)SCS(=O)CC (stereo not drawn) : reported solubility = ?
28900

And for CCOP(=S)(OCC)SCS(=O)C(C)(C)C (stereo not drawn) ?
3610

And for CCOP(=O)(OCC)Oc1ccc([N+](=O)[O-])cc1 ?
8720

And for CCOP(=S)(OCC)SCS(=O)(=O)CC ?
2950

And for CCOP(=S)(OCC)Oc1ccc(S(C)(=O)=O)cc1 ?
2300

And for CCOP(=S)(OCC)SCCS(=O)(=O)CC ?
2880

And for COP(=S)(OC)Oc1cc(Cl)c(Br)cc1Cl ?
0.82

And for CCOP(=S)(OCC)SCCSCC ?
59.4

====

Details: 25 °C
Measurement name: solubility (mM)
Report as a plain number; the unit mM is understood.

Entry CNC(=O)ON=CC(C)(C)SC : reported solubility = ?
31.7
